Experiment: pH stability of free and encapsulated curcumin
Format: physicochemical
Conditions: buffer solution (pH 3); pH 3, 37 °C, dark; read-out: degradation half-life t1/2 (converted)
Protocol: The samples were maintained at 37 °C in the dark, in closed containers, for 8 h. […] The particles were maintained at 37 °C in an oven (AG-System, F.lli Galli G. & P., Milano, Italia) protected from light and air exposure. […] The amount of curcumin found in the samples was then determined using a Nanodrop spectrophotometer. […] The half-life (t1/2) for first-order reactions depends solely on the degradation rate constant, k, and is independent of the substance’s initial concentration. […]
measure: half-life at 4 μg/mL (h)
Give the value, in units of h, as a plain number.

Reported half-life at 4 μg/mL, compound COc1cc(/C=C/C(=O)CC(=O)/C=C/c2ccc(O)c(OC)c2)ccc1O : ____
7.7

* * *

assay: PAMPA-BBB permeability assay (kit PMBBB-096); assay type: in vitro ADME; conditions: PAMPA, pH 7.4, PAMPA-BBB, 37 °C, 18 h, read at 327 nm; read-out: Permeability rate, Pe (TMZ)
measure: Papp at 18 h, 500 μM
Please report the result as a number followed by the unit.

Reported Papp at 18 h, 500 μM, molecule Cn1nnc2c(C(N)=O)ncn2c1=O [TMZ, temozolomide] : ____
0.76 ×10⁻⁶ cm/s

* * *

test: pH stability of free and encapsulated curcumin; assay type: physicochemical; settings: buffer solution (pH 9); pH 9, 37 °C, dark; read-out: degradation half-life t1/2 (converted)
measure: half-life at 4 μg/mL (h)
Give the value, in units of h, as a plain number.

Reported half-life at 4 μg/mL, molecule COc1cc(/C=C/C(=O)CC(=O)/C=C/c2ccc(O)c(OC)c2)ccc1O : ____
2.3

* * *

experiment: pH stability of free and encapsulated curcumin; assay type: physicochemical; conditions: buffer solution; pH 6.8, 37 °C, dark; read-out: degradation half-life t1/2 (converted)
measure: half-life at 4 μg/mL (h)
Give the value, in units of h, as a plain number.

Reported half-life at 4 μg/mL, molecule COc1cc(/C=C/C(=O)CC(=O)/C=C/c2ccc(O)c(OC)c2)ccc1O : ____
6.5

* * *

Assay: Cytotoxicity, MTT assay
Details: Chinese hamster, V79-4 lung fibroblasts (ATCC CCL-93), Cell viability (%) V79-4, 15 μg/mL, 48 h
Excerpt: This IC50 value was derived from a graph plotting the percentage of dead cells against the drug concentration in the samples. […] A lower IC50 value indicates the higher cytotoxicity of the samples. […]
measure: viability at 48 h, 15 μg/mL (%)
Give the value, in units of %, as a plain number.

Reported viability at 48 h, 15 μg/mL, compound COc1cc(/C=C/C(=O)CC(=O)/C=C/c2ccc(O)c(OC)c2)ccc1O [Curcumin, curcumin] : ____
41.6

Reported viability at 48 h, 15 μg/mL, compound Cn1nnc2c(C(N)=O)ncn2c1=O [TMZ, temozolomide] : ____
54.5

* * *

assay: PAMPA-BBB permeability assay (kit PMBBB-096); assay type: in vitro ADME; settings: PAMPA, pH 7.4, Permeability rate, Pe (Curcumin), PAMPA-BBB, 37 °C, 18 h, read at 425 nm
measure: Papp at 18 h, 500 μM

Reported Papp at 18 h, 500 μM, compound COc1cc(/C=C/C(=O)CC(=O)/C=C/c2ccc(O)c(OC)c2)ccc1O [Curcumin, curcumin] : ____
2.1 nm/s

* * *

Assay: Cytotoxicity, MTT assay
Details: Chinese hamster, V79-4 lung fibroblasts (ATCC CCL-93), Cell viability (%) V79-4, 3.75 μg/mL, 48 h
Source text: This IC50 value was derived from a graph plotting the percentage of dead cells against the drug concentration in the samples. […] A lower IC50 value indicates the higher cytotoxicity of the samples. […]
measure: viability at 48 h, 3.75 μg/mL
Please report the result as a number followed by the unit.

Reported viability at 48 h, 3.75 μg/mL, compound Cn1nnc2c(C(N)=O)ncn2c1=O [TMZ, temozolomide] : ____
67%

Reported viability at 48 h, 3.75 μg/mL, compound COc1cc(/C=C/C(=O)CC(=O)/C=C/c2ccc(O)c(OC)c2)ccc1O : ____
60.9%
